- systemTested: Dopamine receptor (Rattus norvegicus) (UniProt P25115+P19020+P30729+P18901+P61169)
- protocolDetails: Evaluation for contralateral turning in 6-hydroxy-dopamine-lesioned rats administered intraperitoneally at the dose 1 mg/kg Maximum intensity (turnings/min)
- Assay type: functional, organism-based
- Set-up: dose 1 mg/kg
observationType: Max intensity

>>> result("CCCN(CCc1ccccc1)C1CCc2c(O)cccc2C1 (centres undefined)")
"8.7 turns min-1"
>>> result("CCCN(CCCOC)C1CCc2c(O)cccc2C1 (centres undefined)")
"7.4 turns min-1"
>>> result("CCCN(CCCCl)C1CCc2c(O)cccc2C1 (centres undefined)")
"12.5 turns min-1"
>>> result("CCCN1C[C@H](CSC)C[C@@H]2c3cccc4[nH]cc(c34)C[C@H]21 [PERGOLIDE]")
"9.7 turns min-1"

---

- Test system: Rattus norvegicus
- protocolDetails: Compound was evaluated for the contralateral turning in 6-hydroxy-dopamine-lesioned rats administered intraperitoneally at the dose 1 mg/kg
- Assay type: functional
- setupConditions: route intraperitoneal
Catalogue of compounds with associated Total turnings
observationType: Total turnings

>>> number("CCCN(CCCNS(=O)(=O)N(C)C)C1CCc2c(O)cccc2C1 (stereo not drawn)")
857
>>> number("CCCN(CCCNC(C)=O)C1CCc2c(O)cccc2C1 (stereo not drawn)")
159
>>> number("CCCN(CCCS(C)(=O)=O)C1CCc2c(O)cccc2C1 (stereo not drawn)")
531
>>> number("CCCN(CCCC(=O)NC)C1CCc2c(O)cccc2C1 (stereo not drawn)")
413
>>> number("CCCN(CCNS(=O)(=O)N(CC)CC)C1CCc2c(O)cccc2C1 (stereo not drawn)")
1015
>>> number("CCN(CC)S(=O)(=O)N[C@H]1C[C@@H]2c3cccc4[nH]cc(c34)C[C@H]2N(C)C1 [ETISULERGINE]")
3688
>>> number("CCCN(CCCNC(=O)OCC)C1CCc2c(O)cccc2C1 (stereo not drawn)")
1216

---

Catalogue of molecules with associated Total turnings
- systemTested: Dopamine receptor (Rattus norvegicus) (UniProt P25115+P19020+P30729+P18901+P61169)
- protocolDetails: Evaluation for contralateral turning in 6-hydroxy-dopamine-lesioned rats administered intraperitoneally at the dose 1 mg/kg total turnings
- Format: functional, organism-based
- Set-up: dose 1 mg/kg
observationType: Total turnings

>>> number("CCCN(CCCSC)C1CCc2c(O)cccc2C1 (stereo in doubt; 12)")
1980
>>> number("C=CCCCN(CCC)C1CCc2c(O)cccc2C1 (stereo not drawn)")
1740
>>> number("CCCN(CCc1ccccc1)C1CCc2c(O)cccc2C1 (stereo not drawn)")
1520
>>> number("CCCN(CCCCl)C1CCc2c(O)cccc2C1 (stereo not drawn)")
2660
>>> number("CN1C[C@@H](CC#N)C[C@@H]2c3cccc4[nH]cc(c34)C[C@H]21 [DELERGOTRILE]")
2610
>>> number("CCCN(CCCC#N)C1CCc2c(O)cccc2C1 (stereo in doubt; (-)-3)")
3260
>>> number("CCCN(CCCc1ccccc1)C1CCc2c(O)cccc2C1 (stereo not drawn)")
656
>>> number("CCCN1C[C@H](CSC)C[C@@H]2c3cccc4[nH]cc(c34)C[C@H]21 [PERGOLIDE]")
1800
>>> number("CCCN(CCCOC)C1CCc2c(O)cccc2C1 (stereo not drawn)")
347
>>> number("CCCN(CCC)C1CCc2c(O)cccc2C1 (stereo not drawn) [5-OH-DPAT]")
2540
>>> number("CCCN(CCCC#N)C1CCc2c(O)cccc2C1 (stereo in doubt; 3)")
1170
>>> number("CCCN(CCCCC#N)C1CCc2c(O)cccc2C1 (stereo not drawn)")
1460
>>> number("CCCN(CCCSC)C1CCc2c(O)cccc2C1 (single isomer, unassigned; (-))")
3590
>>> number("CCCN(CCCO)C1CCc2c(O)cccc2C1 (stereo not drawn)")
721
>>> number("CCCN(CCCN=[N+]=[N-])C1CCc2c(O)cccc2C1 (stereo not drawn)")
1860

---

- protocolDetails: Dopamine receptor binding affinity by displacing the radioligand [3H]-dopamine from dopamine receptor.
- Set-up: species or system Bos taurus
pIC50: −log10 of the molar value.
Catalogue of molecules with associated pIC50
observationType: pIC50

>>> number("CCCN(CCCN=[N+]=[N-])C1CCc2c(O)cccc2C1 (stereo not given)")
7.24
>>> number("CCCN(CCCO)C1CCc2c(O)cccc2C1 (stereo not given)")
6.73
>>> number("CN1C[C@@H](CC#N)C[C@@H]2c3cccc4[nH]cc(c34)C[C@H]21")
6.58
>>> number("CCCN(CCCNC(C)=O)C1CCc2c(O)cccc2C1 (stereo not given)")
6.72
>>> number("CCN(CC)S(=O)(=O)N[C@H]1C[C@@H]2c3cccc4[nH]cc(c34)C[C@H]2N(C)C1")
6.92
>>> number("CCCN(CCCN)C1CCc2c(O)cccc2C1 (stereo not given)")
5.70
>>> number("CCCN(CCNS(=O)(=O)N(CC)CC)C1CCc2c(O)cccc2C1 (stereo not given)")
7.39
>>> number("CCCN(CCCS(C)(=O)=O)C1CCc2c(O)cccc2C1 (stereo not given)")
6.96
>>> number("CCCN(CCCC(=O)OC)C1CCc2c(O)cccc2C1 (stereo not given)")
6.85
>>> number("CCCN(CCCC#N)C1CCc2c(O)cccc2C1 (single isomer, unassigned; (+))")
6.31

---

Catalogue of molecules with associated pIC50
- protocolDetails: Dopamine receptor binding affinity by displacing the radioligand [3H]-dopamine from dopamine receptor.
- Set-up: species or system Bos taurus
pIC50: −log10 of the molar value.
observationType: pIC50

>>> number("C=CCCCN(CCC)C1CCc2c(O)cccc2C1 (configuration not stated)")
7.32
>>> number("CCCN(CCCC(=O)NC)C1CCc2c(O)cccc2C1 (configuration not stated)")
7.42
>>> number("CCCN(CCc1ccccc1)C1CCc2c(O)cccc2C1 (configuration not stated)")
7.40
>>> number("CCCN(CCCSC)C1CCc2c(O)cccc2C1 (stereo in doubt; 12)")
7.37
>>> number("CCCN(CCCSC)C1CCc2c(O)cccc2C1 (single isomer, unassigned; (-))")
7.42
>>> number("CCN(CCCC#N)C1CCc2c(O)cccc2C1 (configuration not stated)")
7.17
>>> number("CCCN(CCCCl)C1CCc2c(O)cccc2C1 (configuration not stated)")
7.34
>>> number("CCCN(CCCc1ccccc1)C1CCc2c(O)cccc2C1 (configuration not stated)")
7.32
>>> number("CCCN(CCCCC#N)C1CCc2c(O)cccc2C1 (configuration not stated)")
7.04
>>> number("CCCN(CCC#N)C1CCc2c(O)cccc2C1 (configuration not stated)")
6.89
>>> number("CCCN(CCCC#N)C1CCc2c(O)cccc2C1 (stereo in doubt; 3)")
7.46
>>> number("CN(CCCC#N)C1CCc2c(O)cccc2C1 (configuration not stated)")
6.30

---

- protocolDetails: Dopamine receptor binding affinity by displacing the radioligand [3H]spiroperidol from dopamine receptor.
- Set-up: species or system Bos taurus
observationType: log10 IC50 (log10 of the value in nM)

>>> number("C=CCCCN(CCC)C1CCc2c(O)cccc2C1 (configuration not stated)")
2.60
>>> number("CCCN(CCc1ccccc1)C1CCc2c(O)cccc2C1 (configuration not stated)")
2.26
>>> number("CCCN(CCCOC)C1CCc2c(O)cccc2C1 (configuration not stated)")
3.34
>>> number("CCCN(CCCO)C1CCc2c(O)cccc2C1 (configuration not stated)")
3.16
>>> number("CCCN(CCCNC(=O)OCC)C1CCc2c(O)cccc2C1 (configuration not stated)")
2.72
>>> number("CCCN(CCCC#N)C1CCc2c(O)cccc2C1 (stereo in doubt; 3)")
2.90
>>> number("CCCN(CCCN)C1CCc2c(O)cccc2C1 (configuration not stated)")
3.66

---

Catalogue of compounds with associated IC50
- protocolDetails: Dopamine receptor binding affinity by displacing the radioligand [3H]-dopamine from dopamine receptor.
- Design: species or system Bos taurus
observationType: IC50 (nM)

>>> number("CCCN1C[C@H](CSC)C[C@@H]2c3cccc4[nH]cc(c34)C[C@H]21 [PERGOLIDE]")
18
>>> number("CCCN(CCCNS(=O)(=O)N(C)C)C1CCc2c(O)cccc2C1 (configuration not stated)")
100
>>> number("CCCN(CCC)C1CCc2c(O)cccc2C1 (configuration not stated) [5-OH-DPAT]")
49
>>> number("CCCN(CCCNC(=O)OCC)C1CCc2c(O)cccc2C1 (configuration not stated)")
77
>>> number("CCCN(CCCOC)C1CCc2c(O)cccc2C1 (configuration not stated)")
150
>>> number("CCCN(CCCNC(=O)N(CC)CC)C1CCc2c(O)cccc2C1 (configuration not stated)")
220
>>> number("CCCN(CCCC#N)C1CCc2c(O)cccc2C1 (stereo in doubt; (-)-3)")
37
